Origin of measurements: PubChem BioAssay AID1159580

TEST_PROTOCOL: chemical genetic growth profiling, strain panel (AID 1159580);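 further: tested at 20 µM; growth read once vehicle control cultures reached saturation at 30 °C; lower values mean less growth of the strain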
CONDITION_LABEL: S. cerevisiae deletion strains, growth OD, locus YLR371W, strain rom2
The campaign covered roughly 5,500 compounds. About 2,000 (36%) were called active. Not shown: some 18% with an inconclusive outcome. No stated cut-off is given here; in the data, active means normalized growth mostly below about 0.91 (no sharp cut-off); inconclusive means no clear call, values can overlap the other calls; inactive means mostly above about 0.92. This is one part of the list.
Tick one outcome: active, inactive

Study these solved cases before continuing.
N[C@@H](CCC(=O)N[C@@H](CS)C(=O)NCC(=O)O)C(=O)O ... inactive
CN(C)CCCN1c2ccccc2Sc2ccc(Cl)cc21 ... inactive
CN(C)CCCN1c2ccccc2Sc2ccccc21 ... inactive
CC1=CC(=O)c2ccccc2C1=O ... active
CN(C)CCCN1c2ccccc2Sc2ccc(C(F)(F)F)cc21 ... inactive
COc1ccc2cc(CCC(C)=O)ccc2c1 ... inactive

Record lookup: outcome of this test for C=C(C)C1CCC(C)(O)C2CC3OC3(C)C2C1 (configuration not stated) ?
inactive

Record lookup: outcome of this test for CN(C)CCCN1c2ccccc2CCc2ccccc21 ?
inactive

Record lookup: outcome of this test for CCOC(=O)[C@H](CCc1ccccc1)N[C@@H](C)C(=O)N1CCC[C@H]1C(=O)O ?
inactive

Record lookup: outcome of this test for COC(=O)/C(=C1\OC(=O)C(c2ccccc2)=C1O)c1ccccc1 ?
inactive

Record lookup: outcome of this test for CC(Cc1cccc(C(F)(F)F)c1)NCCOC(=O)c1ccccc1 (configuration not stated) ?
inactive

Record lookup: outcome of this test for COc1ccc(C2Sc3ccccc3N(CCN(C)C)C(=O)C2OC(C)=O)cc1 (configuration not stated) ?
inactive
